Origin of measurements: patent US5652232A

assay.remarks: Cytotoxicity against MT-4 cells (MTT)
Type: cell-based
conditions.used: human, mt-4 cells
Exercise: for every item that follows, state its recorded CC50 at 120 h.

{"columns": ["compound", "CC50 at 120 h"],
 "data": [
  ["CC(C)[C@H]1C(=O)N[C@H](CO)CCCc2ccccc2N1C (relative stereo)", "> 10 µg/mL"]
]}

Here is another compound to look at.
Incoming: Data request, read-out CC50 at 120 h, for CC(C)[C@H]1C(=O)N[C@@H](CO)CCCc2ccccc2N1C (relative stereo) [epi-BL-V10]
Outgoing: > 10 µg/mL

---

assay.remarks: Cytotoxicity against MT-4 cells (MTT)
Type: cell-based
conditions.used: human; MT-4 cells, no virus, 5 days at 37° C., MTT; read-out: CC50: concentration of test compound inducing 50% cytotoxicity
readout.name: CC50 at 120 h

Known results for molecules:
{"columns": ["molecule", "obs.value"],
 "data": [
  ["CCCCCCCCCCc1ccc2c(c1)N(C)[C@@H](C(C)C)C(=O)N[C@@H](CO)C2 [(-)-epi-BL-V8-310]", "2.5 to 5 µg/mL"],
  ["CCCCCCCCCCc1ccc2c(c1)N(C)[C@@H](C(C)C)C(=O)N[C@H](CO)C2 [(-)-BL-V8-310]", "5 to 10 µg/mL"]
]}

// next item, CC50 at 120 h requested
Incoming: Data request, read-out CC50 at 120 h, for CCCCCCCCCCc1ccc2c(c1)N(C)[C@H](C(C)C)C(=O)N[C@@H](CO)C2 [(+)-BL-V8-310]
Outgoing: 5 to 10 µg/mL
